These measurements were taken from the supplement of paper PMC11061612.

Entries and their combination Emax values follow.
- Tested on: NCI-H1838 (Lung Adenocarcinoma)
- Method Notes: combination Emax (second highest fraction inhibited in the dose matrix, 72 h); higher = more inhibition; extreme values may be limits of the assay

Molecule	combination Emax
Cc1cc2ncnn2cc1Nc1ncc2c(n1)n(C1CCOCC1)c(=O)n2C [AZD7648] + CCN(CCO)CCCOc1ccc2c(Nc3cc(CC(=O)Nc4cccc(F)c4)[nH]n3)ncnc2c1 [AZD2811] (first compound max 10 µM, 7x7, partner max 1 µM)	0.506
Cc1cc2ncnn2cc1Nc1ncc2c(n1)n(C1CCOCC1)c(=O)n2C [AZD7648] + C[C@@H]1COCCN1C2=NC(=NC(=C2)C3(CC3)[S@](=N)(=O)C)C4=C5C=CNC5=NC=C4 [AZD6738] (first compound max 10 µM, 7x7, partner max 10 µM)	0.612
Cc1cc2ncnn2cc1Nc1ncc2c(n1)n(C1CCOCC1)c(=O)n2C [AZD7648] + O=C(c1cc(Cc2n[nH]c(=O)c3ccccc23)ccc1F)N1CCN(C(=O)C2CC2)CC1 [Olaparib] (first compound max 10 µM, 7x7, partner max 10 µM)	0.323
COc1cc2c(cc1OCCCCCOc1cc3c(cc1OC)C(=O)N1C=C(C)C[C@H]1C=N3)N=C[C@@H]1CC(C)=CN1C2=O [SG3199] + O=C(c1cc(Cc2n[nH]c(=O)c3ccccc23)ccc1F)N1CCN(C(=O)C2CC2)CC1 [Olaparib] (first compound max 0.001 µM, 7x7, partner max 10 µM)	0.14
